Test system: HCV replicon in HUH-7 cells
Test: HCV replicon FRET assay (confirmed in replicon luciferase reporter assay)
Format: cell-based
Details: Hepatitis C virus, 96 h; HUH-7 cells constitutively expressing HCV 1b replicon, 4 days incubation
RECORDED ENDPOINT: EC50 (nM)
Report only the number, with the unit nM understood.

Query :: Annotate the compound CC(C)(C)OC(=O)N[C@H]1CCCCC/C=C\[C@@H]2C[C@@]2(C(=O)NS(=O)(=O)C2CC2)NC[C@@H]2C[C@@](O)(c3ccccc3)CN2C1=O [Compound 2] with its measured EC50.
Result :: 389

Query :: Annotate the compound CC(C)(C)OC(=O)N[C@H]1CCCCC/C=C\C2C[C@@]2(C(=O)NS(=O)(=O)C2CC2)NC(=O)[C@@H]2C[C@@H](c3ccccc3)CN2C1=O (some centres unmarked) [Compound 1] with its measured EC50.
Result :: 639
